Test system: HCT-116
assay method text: NCI-60 one-dose SRB screening
Type: cell-based
measurement parameters: Homo sapiens, HCT-116, Colon Cancer, 10 µM one dose, 48 h, read-out: growth percentage
# activity at 10 µM listing for each entry below
// note: answer is a bare numeric in %

See these solved cases before continuing.
Cc1nn(-c2ccc(Br)cc2)c2ncnc(Nc3ccc(OCc4c(-c5ccccc5)no[n+]4[O-])cc3)c12: 90.7
Cc1nn(-c2ccccc2)c2ncnc(Nc3ccc(OCc4c(-c5ccccc5)no[n+]4[O-])cc3)c12: 81.8
Cc1nc(Nc2ccc(OCc3c(-c4ccccc4)no[n+]3[O-])cc2)c2cnn(-c3ccc(Br)cc3)c2n1: 97.5
Cc1nn(-c2ccccc2)c2nc(CCl)[nH]c(=O)c12 [13b]: 24.9
[O-][n+]1onc(-c2ccccc2)c1CNc1ccc(Nc2nc(C(F)(F)F)nc3c2cnn3-c2ccc(Br)cc2)cc1 [12b]: 46.7
Cc1nn(-c2ccc(Br)cc2)c2nc(CCl)[nH]c(=O)c12 [13c]: 98.3

Query block: HCT-116 / activity at 10 µM / O=c1[nH]c(CNc2ccc(NCc3c(-c4ccccc4)no[n+]3[O-])cc2)nc2c1cnn2-c1ccccc1 [14a] : value?
Result block: 49.6

Query block: HCT-116 / activity at 10 µM / Cc1nn(-c2ccccc2)c2nc(C(F)(F)F)nc(Nc3ccc(NCc4c(-c5ccccc5)no[n+]4[O-])cc3)c12 [12a] : value?
Result block: 41.1
